Test: ESR line widths of nitroxides in degassed benzene
Type: physicochemical
Conditions: benzene, 23° C.
Description: The ESR-spectral properties of a series of partially and fully deuterated nitroxides (compounds 3b-d) also useful in the method of the invention have been investigated. […] Instrumentation. The ESR-spectra were recorded by the Upgrade Version ESP 3220-200SH of a Bruker ER-200D SRC instrument at 22°. […] NMR-spectra were recorded on a Varian XL-300 spectrometer. Mass spectra were recorded on a VG Quattor II instrument equipped with ESPC electrospray. […]
PROPERTY NAME: ESR Line width (mg)
Write the value in mg as a bare number.

Asked: Look at this compound and give its reported ESR Line width. [2H]C1=C(C(=O)O)C(C([2H])([2H])[2H])(C([2H])([2H])[2H])N([O])C1(C([2H])([2H])[2H])C([2H])([2H])[2H] [Compound 2b-d13, reference compound]
Given back: 407

Asked: What do we get for `[2H]C([2H])([2H])C(c1c(C(=O)OC)c(C(=O)OC)c(C(C([2H])([2H])[2H])(C([2H])([2H])[2H])C([2H])([2H])[2H])n1[O])(C([2H])([2H])[2H])C([2H])([2H])[2H]` ?
Given back: 219

Asked: What do we get for CC1(C)CC(=O)CC(C)(C)N1[O] [Compound 1, reference compound] ?
Given back: 602

Asked: What do we get for `COC(=O)c1c(C(=O)OC)c(C(C)(C)C)n([O])c1C(C)(C)C` ?
Given back: 228

Asked: What do we get for CC1(C)C=C(C(=O)O)C(C)(C)N1[O] [Compound 2b, reference compound] ?
Given back: 1032

Asked: What do we get for `[2H]C([2H])([2H])OC(=O)c1c(C(=O)OC([2H])([2H])[2H])c(C(C([2H])([2H])[2H])(C([2H])([2H])[2H])C([2H])([2H])[2H])n([O])c1C(C([2H])([2H])[2H])(C([2H])([2H])[2H])C([2H])([2H])[2H]` ?
Given back: 113

Asked: What do we get for `[2H]C([2H])([2H])OC(=O)c1c(C(=O)OC([2H])([2H])[2H])c(C(C)(C)C)n([O])c1C(C)(C)C` ?
Given back: 172

Asked: What do we get for [2H]C([2H])([2H])C1(C([2H])([2H])[2H])N([O])C(C([2H])([2H])[2H])(C([2H])([2H])[2H])C([2H])([2H])C(=O)C1([2H])[2H] [Compound 1-d16, reference compound] ?
Given back: 266
